# measurement description: Biodistribution in Gossypium hirsutum (cotton) plant stem at 500 mg/L after 4 hr
# Type: ADME, organism-based
# protocol conditions: read-out: Drug uptake
measured endpoint: concentration at 4 h

>>> experimental_result("CCCON=C1CCCCCCCCCCC(=O)NCCC1")
"190 ng/g"

###

# measurement description: Biodistribution in Gossypium hirsutum (cotton) plant root at 500 mg/L after 16 hr
# Format: ADME, organism-based
# protocol conditions: read-out: Drug uptake
measured endpoint: concentration at 16 h

>>> experimental_result("CCCON=C1CCCCCCCCCCC(=O)NCCC1")
"97000 ng/g"

###

# measurement description: Biodistribution in Gossypium hirsutum (cotton) plant stem at 500 mg/L after 36 hr
# Assay type: ADME, organism-based
# protocol conditions: read-out: Drug uptake
measured endpoint: concentration at 36 h (ng/g)

>>> experimental_result("CCCON=C1CCCCCCCCCCC(=O)NCCC1")
8950
